test system: Mus musculus; assay: Cmax in mouse plasma at 50 mg/kg, po LC-MS analysis; type: ADME, organism-based; set-up: dose 50 mg/kg, route oral; conditions: in vivo
Property label: Cmax

>>> print(df.to_string())
                                smiles_text  observed
0  O=C(Nc1ccc(Cl)c(-c2nc3ncccc3o2)c1)c1ccco1     60 nM

====

test system: Trypanosoma brucei rhodesiense; experiment: Antiparasitic activity against Trypanosoma brucei rhodesiense; format: functional, organism-based
pEC50: −log10 of the molar value.
Property label: pEC50

                                smiles_text                             tgt  prefix_operator  observed
0  O=C(Nc1ccc(Cl)c(-c2nc3ncccc3o2)c1)C(F)(F)F  Trypanosoma brucei rhodesiense                <      4.30
1  O=C(Nc1ccc(F)c(-c2nc3ncc(-c4ccc(F)cc4)cc3o2)c1)c1ccco1  Trypanosoma brucei rhodesiense                =      7.00
2  O=C(Nc1ccc(F)c(-c2nc3ncc(-c4ccccc4)cc3o2)c1)c1ccco1  Trypanosoma brucei rhodesiense                =      7.10

====

experiment: Cytotoxicity against human CRL8155 cells after 48 hrs by Alamar Blue assay; assay type: cell-based; details: crl8155, 48 h
Reported CC50 by item:
Property label: CC50 (µM)

>>> df
                                smiles_text  units_symbol  prefix_operator  observed
0  COc1ncc(-c2cnc3[nH]c(-c4cc(NC(=O)N5CCCC5)ccc4F)nc3c2)cn1            µM                =       3.9
1  Cc1cccc(-c2cnc3[nH]c(-c4cc(NC(=O)N5CCCC5)ccc4F)nc3c2)c1            µM                =         5
2  O=C(Nc1ccc(F)c(-c2nc3cc(-c4cccs4)cnc3[nH]2)c1)N1CCCC1            µM                =         9
3  O=C(Nc1ccc(F)c(-c2nc3cc(-c4cncnc4)cnc3[nH]2)c1)N1CCCC1            µM                =        12
4  O=C(c1ccco1)N(C(=O)c1ccco1)c1ccc(F)c(-c2nc3ncccc3o2)c1            µM                >        50
5  O=C(Nc1ccc(F)c(-c2nc3cc(-c4ccoc4)cnc3[nH]2)c1)N1CCCC1            µM                =        25
6  O=C(Nc1ccc(F)c(-c2nc3cc(-c4cccc(OC(F)(F)F)c4)cnc3[nH]2)c1)N1CCCC1            µM                =        11
7  O=C(Nc1ccc(F)c(-c2nc3cc(-c4ccsc4)cnc3[nH]2)c1)N1CCCC1            µM                =         6
8  Cc1cncc(-c2cnc3[nH]c(-c4cc(NC(=O)N5CCCC5)ccc4F)nc3c2)c1            µM                >        50

====

test system: Trypanosoma brucei brucei; test: Antiparasitic activity against Trypanosoma brucei brucei BF427 assessed as growth inhibition by Alamar Blue assay; assay type: functional, organism-based
Recorded EC50, one value per entry.
Property label: EC50

In [3]: df
Out[3]:
                                smiles_text  property_label  observed
0  O=C(Nc1ccc(Cl)c(-c2nc3ccccc3o2)c1)c1ccccc1F            EC50   > 20 µM
1  O=C(Nc1ccc(Cl)c(C(=O)N2CCOCC2)c1)c1ccco1            EC50   > 20 µM
2  O=C(Nc1ccc(F)c(-c2nc3ncccc3o2)c1)c1cc2ccccc2o1            EC50   > 10 µM

====

Below, each entry is listed with its recorded EC50.
test system: Trypanosoma brucei brucei; test: Antiparasitic activity against Trypanosoma brucei brucei BF427 assessed as growth inhibition by Alamar Blue assay; type: functional, organism-based
Property label: EC50

>>> print(df.to_string())
                                smiles_text  observed
0  O=C(Nc1ccc(Cl)c(-c2nc3ccccc3o2)c1)C1CCCCC1   > 20 µM
1  O=S(=O)(Nc1ccc(Cl)c(-c2nc3ncccc3o2)c1)c1ccccc1   > 20 µM
2             Nc1ccc(Cl)c(-c2nc3ncccc3o2)c1   > 20 µM
3  Cc1ccccc1C(=O)Nc1ccc(Cl)c(-c2nc3ccccc3o2)c1   > 20 µM
4  O=C(Nc1ccc(-c2ccc(F)cc2)c(-c2nc3ncccc3o2)c1)c1ccco1   > 50 µM
5  O=C(Nc1ccc(F)c(-c2nc3cnccc3o2)c1)c1ccco1   > 20 µM
6  O=C(Nc1ccc(-c2ccc(F)c(F)c2)c(-c2nc3ncccc3o2)c1)c1ccco1   > 50 µM
7  O=C(Nc1ccc(Cl)c(C(=O)N2CCNCC2)c1)c1ccco1   > 20 µM
8  O=C(Nc1ccc(F)c(CNc2ccc(Cl)cn2)c1)c1ccco1   > 10 µM

====

tested on: Trypanosoma brucei brucei; experiment: Antiparasitic activity against Trypanosoma brucei brucei BF427 assessed as growth inhibition by Alamar Blue assay; type: functional, organism-based
EC50 values by entry
Property label: EC50

                                   molecule  observed
0  O=C(Nc1ccc(F)c(-c2nc3ncccc3o2)c1)C1CCCO1 (centres undefined)   > 10 µM
1       Fc1ccc(NCc2ccccc2)cc1-c1nc2ncccc2o1   > 20 µM
2  Cn1cncc1C(=O)Nc1ccc(F)c(-c2nc3ncccc3o2)c1   > 20 µM
3  Cc1cccc(C(=O)Nc2ccc(Cl)c(-c3nc4ccccc4o3)c2)c1   > 20 µM

====

test system: Trypanosoma brucei brucei; experiment: Antiparasitic activity against Trypanosoma brucei brucei BF427 assessed as growth inhibition by Alamar Blue assay; assay type: functional, organism-based
In this section, each of the compounds is paired with its reported EC50.
Property label: EC50 (µM)

                                smiles_text  prefix_operator  observed
0  Cn1cccc1C(=O)Nc1ccc(F)c(-c2nc3ncccc3o2)c1                =       1.1
1  O=C(Nc1ccc(-c2ccncc2)c(-c2nc3ncccc3o2)c1)c1ccco1                >        20
2  O=C(Nc1ccc(F)c(-c2nc3cc(-c4cccnc4)cnc3[nH]2)c1)N1CCCC1                =     0.005
